- TARGET_OF_ASSAY: Glutamate NMDA receptor
- TEST_PROTOCOL: Displacement of [3H]-MK-801 from rat cortical membranes NMDA receptor by beta counting analysis in absence of spermine
ENDPOINT_NAME: pIC50
Recall that pIC50 is obtained by taking minus log10 of the concentration measured in molar.

Find the recorded pIC50 belonging to `CCN(CCN(CC)c1ccc(C(=N)N)cc1)c1ccc(C(=N)N)cc1` and report it. 5.94

What about this compound? `CCCC/N=C(/N)c1ccc(N2CCN(c3ccc(/C(N)=N\CCCC)cc3)CC2)cc1` 4.99

Now give it for `N=C(N)c1ccc(NCCCCCCCNc2ccc(C(=N)N)cc2)cc1` too. 5.33

Would you mind doing `CC(C)NC(=N)c1ccc(NC(=O)c2cccc(C(=O)Nc3ccc(C(=N)NC(C)C)cc3)n2)cc1` as well? 5.16

Check `N=C(N)c1ccc(NCCNc2ccc(C(=N)N)cc2)cc1` too. 5.70

Record: `CCCCNC(=N)c1ccc(N2CCCN(c3ccc(C(=N)NCCCC)cc3)CC2)cc1` 5.00

====

- TARGET_OF_ASSAY: Glutamate NMDA receptor
- TEST_PROTOCOL: Displacement of [3H]-ifenprodil from rat cortical membranes NMDA receptor by beta counting analysis in absence of spermine
pIC50: −log10 of the molar value.
Each entry gets false (0) if its pIC50 stays under 5, and true (1) if its pIC50 is 5 or above.

I'd appreciate it if you could say whether `NC(N)=NCCCCN=C(N)N` has pIC50 at least equal to 5. false (0)

Also `CC(C)NC(=N)c1ccc(NC(=O)c2cccc(C(=O)Nc3ccc(C(=N)NC(C)C)cc3)n2)cc1` , if possible. false (0)

Another compound to look at: `Cc1ccc(S(=O)(=O)N(CCOc2ccc(C(=N)N)cc2)CCOc2ccc(C(=N)N)cc2)cc1` true (1)

Okay, and `N=C(N)c1ccc(NC(=O)CCCC(=O)Nc2ccc(C(=N)N)cc2)cc1` ? false (0)

Try N=C(N)c1ccc(OC(=O)c2ccc(C(=O)Oc3ccc(C(=N)N)cc3)cc2)cc1 [BIS(4-CARBAMIMIDOYLPHENYL)TEREPHTHALATE] next. false (0)

Check `NCCCCCCCCc1ccc(CCCCN)s1` too. false (0)

Cool, now `N=C(N)c1ccc(NCCNc2ccc(C(=N)N)cc2)cc1` true (1)

Now give it for `N=C(N)c1ccc(N2CCN(c3ccc(C(=N)N)cc3)CC2)cc1` too. false (0)

====

- TARGET_OF_ASSAY: Glutamate NMDA receptor
- TEST_PROTOCOL: Displacement of [3H]-MK-801 from rat cortical membranes NMDA receptor by beta counting analysis in presence of 30 uM spermine
ENDPOINT_NAME: pIC50
Friendly reminder that pIC50 comes from taking -log10 of the concentration in mol/L.

Return pIC50 measured with Glutamate NMDA receptor given this compound: `CC(C)(C)/N=C(\N)c1ccc(N2CCCN(c3ccc(/C(N)=N/C(C)(C)C)cc3)CC2)cc1` 3.25

Next up: `N=C(NCCO)c1ccc(N2CCCN(c3ccc(/C(N)=N/CCO)cc3)CC2)cc1` 3.49

Here is the next compound: `N=C(N)c1ccc(NC(=O)c2ccc(C(=O)Nc3ccc(C(=N)N)cc3)cc2)cc1` 4.28

Ok, now `CCCNC(=N)c1ccc(N2CCN(c3ccc(C(=N)NCCC)cc3)CC2)cc1` 3.43

Now the compound `N=C(N)c1ccc(NC(=O)c2cccc(C(=O)Nc3ccc(C(=N)N)cc3)n2)cc1` 4.15
